Molecular target: UniProt:P08492
Assay type: biochemical, hPIV-3 (strain C-243)
Set-up: rows headed: HI Mean IC50; hPIV-3 HN; 3 independent experiments; fold improvement in HI assay; other: versus 6; hPIV-3 HN HI IC50; other: text; other: text, unit given as M
Details: read-out: HI Mean IC50

COMPOUND | UNIT_ABBREVIATION | IC50
CC(C)C(=O)N[C@H]1[C@H]([C@H](O)[C@H](O)CO)OC(C(=O)O)=C[C@@H]1N=[N+]=[N-] [Compound 6, BCX 2798, reference compound] | µM | 16.1

###

Biological target: hPIV-3 HN (Human parainfluenza 3 virus)
Sequence (P08492 whole entry): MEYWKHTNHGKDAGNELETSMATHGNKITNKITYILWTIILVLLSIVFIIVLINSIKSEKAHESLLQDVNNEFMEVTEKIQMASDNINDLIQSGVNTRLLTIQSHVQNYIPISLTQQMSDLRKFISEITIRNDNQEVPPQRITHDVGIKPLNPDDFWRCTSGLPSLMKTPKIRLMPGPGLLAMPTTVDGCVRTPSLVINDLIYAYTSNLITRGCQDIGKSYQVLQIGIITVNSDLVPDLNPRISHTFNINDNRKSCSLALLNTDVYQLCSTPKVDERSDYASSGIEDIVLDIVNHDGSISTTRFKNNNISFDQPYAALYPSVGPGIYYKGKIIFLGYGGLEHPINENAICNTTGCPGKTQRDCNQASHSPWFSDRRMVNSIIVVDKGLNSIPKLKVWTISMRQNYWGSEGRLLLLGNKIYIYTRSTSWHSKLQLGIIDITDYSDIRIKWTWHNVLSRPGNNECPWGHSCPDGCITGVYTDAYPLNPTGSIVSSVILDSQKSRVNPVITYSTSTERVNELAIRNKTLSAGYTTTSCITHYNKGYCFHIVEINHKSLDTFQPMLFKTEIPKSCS
Assay type: biochemical, hPIV-3 (strain C-243)
Details: Table 5; read-out: hPIV-3 NI (IC50 values)
pIC50: −log10 of the molar value.

COMPOUND | ASSAY_TARGET | QUALIFIER_SIGN | pIC50
CC(=O)N[C@H]1[C@H]([C@H](O)C(O)CO)OC(C(=O)O)=C[C@@H]1n1nnc(-c2ccccc2)c1-c1ccccc1 (some centres unmarked) [IE1172-102] | hPIV-3 HN (Human parainfluenza 3 virus) | < | 3.00
CC(=O)N[C@H]1[C@H]([C@H](O)[C@H](O)CO)OC(C(=O)O)=C[C@@H]1n1cnnn1 [IE832-98] | hPIV-3 HN (Human parainfluenza 3 virus) | = | 4.56
CC(=O)N[C@H]1[C@H]([C@H](O)C(O)CO)OC(C(=O)O)=C[C@@H]1n1nncc1-c1ccccc1 (some centres unmarked) [IE1172-45] | hPIV-3 HN (Human parainfluenza 3 virus) | = | 3.50
CC(=O)N[C@H]1[C@H]([C@H](O)[C@H](O)CO)OC(C(=O)[O-])=C[C@@H]1n1cc(-c2ccccc2)nn1.[Na+] [Compound 8] | hPIV-3 HN (Human parainfluenza 3 virus) | = | 5.23
CC(C)C(=O)N[C@H]1[C@H]([C@H](O)[C@H](O)CO)OC(C(=O)O)=C[C@@H]1n1cc2ccccc2c1C#N [IE889-99] | hPIV-3 HN (Human parainfluenza 3 virus) | = | 6.22
COCc1cn([C@H]2C=C(C(=O)O)O[C@@H]([C@H](O)[C@H](O)CO)[C@@H]2NC(C)=O)nn1 [Compound 7] | hPIV-3 HN (Human parainfluenza 3 virus) | = | 3.83
CC(=O)N[C@H]1[C@H]([C@H](O)[C@H](O)CO)OC(C(=O)O)=C[C@@H]1n1cc2ccccc2c1C#N [IE889-80] | hPIV-3 HN (Human parainfluenza 3 virus) | = | 5.57
COCc1cnnn1[C@H]1C=C(C(=O)O)O[C@@H]([C@H](O)C(O)CO)[C@@H]1NC(C)=O (some centres unmarked) [IE1172-87] | hPIV-3 HN (Human parainfluenza 3 virus) | = | 4.11
CC(=O)N[C@H]1[C@H]([C@H](O)C(O)CO)OC(C(=O)O)=C[C@@H]1n1cc(-c2ccccc2C(F)(F)F)nn1 (some centres unmarked) [IE1172-83] | hPIV-3 HN (Human parainfluenza 3 virus) | = | 5.25
N#Cc1c2ccccc2cn1[C@H]1C=C(C(=O)O)O[C@@H]([C@H](O)[C@H](O)CO)[C@@H]1NC(=O)C(F)(F)F [IE927-99] | hPIV-3 HN (Human parainfluenza 3 virus) | = | 6.57
CC(C)Cc1cn([C@H]2C=C(C(=O)O)O[C@@H]([C@H](O)[C@H](O)CO)[C@@H]2NC(=O)C(C)C)nn1 [IE927-67] | hPIV-3 HN (Human parainfluenza 3 virus) | = | 3.94
COc1ccccc1-c1cn([C@H]2C=C(C(=O)O)O[C@@H]([C@H](O)[C@H](O)CO)[C@@H]2NC(=O)C(C)C)nn1 [IE889-34] | hPIV-3 HN (Human parainfluenza 3 virus) | = | 5.49
COCc1cn([C@H]2C=C(C(=O)O)O[C@@H]([C@H](O)[C@H](O)CO)[C@@H]2NC(=O)C(C)C)nn1 [Compound 9] | hPIV-3 HN (Human parainfluenza 3 virus) | = | 4.88
CC(=O)N[C@H]1[C@H]([C@H](O)C(O)CO)OC(C(=O)O)=C[C@@H]1n1cc(-c2ccccc2Cl)nn1 (some centres unmarked) [IE1172-78] | hPIV-3 HN (Human parainfluenza 3 virus) | = | 5.61
